These measurements were taken from ChEMBL document CHEMBL1201862.

System: T47D
Run description: NCI tumour cell line growth inhibition, 48 h
Active and inactive are the calls of the source. Rule as the data show it: active = GI50 up to about 1.1 µM and inactive = higher.
Entries annotated with measured GI50

[
  {
    "Molecule": "CC(C(=O)O)/C(=C\\c1ccc2c(c1)OCO2)C(=O)O (stereo not given)",
    "GI50": "> 100 µM (inactive)"
  },
  {
    "Molecule": "COc1ccc(OC)c2c(=S)c3ccccc3[nH]c12",
    "GI50": "> 100 µM (inactive)"
  },
  {
    "Molecule": "Cc1cn(C2CC(O)C(Cn3nncc3Cn3nc(Br)c(=O)[nH]c3=O)O2)c(=O)[nH]c1=O (stereo not given)",
    "GI50": "> 100 µM (inactive)"
  },
  {
    "Molecule": "O=C(/C=C/c1ccc([N+](=O)[O-])cc1)N1CCN(CCOC(c2ccc(F)cc2)c2ccc(F)cc2)CC1",
    "GI50": "4.74 µM (inactive)"
  },
  {
    "Molecule": "Cn1c(N)cc(=O)nc1N",
    "GI50": "> 100 µM (inactive)"
  }
]

---

Tested on: NCI-H226
Run description: NCI tumour cell line growth inhibition, 48 h
Calls of active or inactive are those of the source. No stated cut-off is given here; in the data, active = GI50 up to about 1.1 µM and inactive = higher. Positions of bridges follow the written chain, without caps; N, C: chain ends. Non-standard residues stand in square brackets, D forms with d. Residues, ends and D or L forms follow the SMILES beside them. Aib = CC(C)(N)C(=O)O; βAla = NCCC(=O)O
Outcome codes: label 1 (active), label 0 (inactive)

[
  {
    "Compound": "COc1ccc2cc(C(=O)Nc3ccc(O)c(C(=O)O)c3)ccc2c1OC",
    "Target": "NCI-H226",
    "Classification": "label 0"
  },
  {
    "Compound": "CCN(CC)Cc1ccccc1CC(=O)N1c2ccccc2C(=O)Nc2cccnc21",
    "Target": "NCI-H226",
    "Classification": "label 0"
  },
  {
    "Compound": "Cc1cn(C2CC(O)C(Cn3cc(Cn4ncc(=O)[nH]c4=O)nn3)O2)c(=O)[nH]c1=O (stereo not given)",
    "Target": "NCI-H226",
    "Classification": "label 0"
  },
  {
    "Compound": "O=C1CC(C[C@H](O)C2CCCCC2O)CC(=O)N1Cc1ccccc1 (stereo not given in full)",
    "Target": "NCI-H226",
    "Classification": "label 0"
  },
  {
    "Compound": "Oc1ccc(-c2nc(-c3cccnc3)c(-c3ccc(Cl)cc3)[nH]2)cc1",
    "Target": "NCI-H226",
    "Classification": "label 0"
  },
  {
    "Compound": "Cc1c2c(n3c(nc4ccccc43)c1C#N)N(c1ccc(F)cc1)CC2",
    "Target": "NCI-H226",
    "Classification": "label 0"
  },
  {
    "Compound": "COC(=O)C1[C@H](c2ccc3c(c2)OCO3)OC(=O)[C@]1(C(=O)OC)C(=O)c1ccc(OC)c(OC)c1 (stereo not given in full)",
    "Target": "NCI-H226",
    "Classification": "label 0"
  },
  {
    "Compound": "CSc1ccc2c(cc1=O)C(NC(=O)c1cc(O)c(OC(=O)O)c(O)c1)CCc1cc(O)c(O)c(O)c1-2 (stereo not given)",
    "Target": "NCI-H226",
    "Classification": "label 0"
  },
  {
    "Compound": "Cc1cc2c(cc1C)[n+]([O-])c(C(=O)/C=C/c1ccccc1Cl)c(C)[n+]2[O-]",
    "Target": "NCI-H226",
    "Classification": "label 0"
  },
  {
    "Compound": "CC[C@H](C)[C@H]1NC(=O)[C@@H](NC(=O)[C@@H](CC(C)C)N(C)C(=O)C2CCCN2C(=O)[C@H](C)O)[C@@H](C)OC(=O)[C@H](Cc2ccccc2)N(C)C(=O)[C@@H]2CCCN2C(=O)[C@H](CC(C)C)NC(=O)[C@@H](C)C(=O)[C@H](C(C)C)OC(=O)C[C@@H]1O (stereo not given in full)",
    "Target": "NCI-H226",
    "Classification": "label 1"
  },
  {
    "Compound": "O=C(O)Cc1nc[nH]c1C(=O)O",
    "Target": "NCI-H226",
    "Classification": "label 0"
  },
  {
    "Compound": "COC(=O)[C@]12CC=C3O[C@@H]4OC5(CCCCC5)O[C@@H]4[C@H]3C1C(=O)C=CC2=O (stereo not given in full)",
    "Target": "NCI-H226",
    "Classification": "label 0"
  },
  {
    "Compound": "COc1cc(OC)c2ssc3c(OC)cc(OC)c4ssc1c2-c43",
    "Target": "NCI-H226",
    "Classification": "label 0"
  },
  {
    "Compound": "CC1(C)NC(=O)C(NC(=O)C(N)CC(=O)O)CCCCNC(=O)CCNC1=O (stereo not given) (H-DK[Aib][βAla]; lactam 2-C; configuration not given here)",
    "Target": "NCI-H226",
    "Classification": "label 0"
  },
  {
    "Compound": "N=c1c2c(=S)n(-c3ccccc3)c(=S)n(-c3ccccc3)c2nc(SCCN2CCOCC2)n1-c1ccccc1",
    "Target": "NCI-H226",
    "Classification": "label 0"
  }
]

---

Entries annotated with measured GI50
Tested on: TK-10
Run description: NCI tumour cell line growth inhibition, 48 h
Calls of active or inactive are those of the source. No stated cut-off is given here; in the data, active = GI50 up to about 1.1 µM and inactive = higher.
Measured attribute: GI50

[
  {
    "Smiles record": "O=c1[nH]c2cc(C(F)(F)F)ccc2nc1Cc1ccccc1",
    "Measured attribute": "GI50",
    "Reported value": "> 100 µM (inactive)"
  },
  {
    "Smiles record": "CCN(CC)CCC(=O)c1ccccc1",
    "Measured attribute": "GI50",
    "Reported value": "21.3 µM (inactive)"
  },
  {
    "Smiles record": "Oc1ccc(Cl)cc1-c1cc(-c2ccccc2)nc(NCN2CCCCC2)n1",
    "Measured attribute": "GI50",
    "Reported value": "> 100 µM (inactive)"
  }
]

---

System: SK-MEL-2
Run description: NCI tumour cell line growth inhibition, 48 h
Active and inactive are the calls of the source. No stated cut-off is given here; in the data, active = GI50 up to about 1.1 µM and inactive = higher.
Outcome codes: 1 (active), 0 (inactive)

[
  {
    "Molecule": "CN(C)C(=S)N/N=C\\C=N/NC(=S)N(C)C",
    "Classification": 1
  },
  {
    "Molecule": "O=C(O)c1cccc(OCCOc2cccc(C(=O)O)c2[N+](=O)[O-])c1[N+](=O)[O-]",
    "Classification": 0
  },
  {
    "Molecule": "CC1(C)C2CCC3CC(CCC#N)CCC3C21C#N (stereo unspecified)",
    "Classification": 0
  },
  {
    "Molecule": "CSC1(C)CC2C(CC1N1CCCCC1)C2(C)C (stereo unspecified)",
    "Classification": 0
  },
  {
    "Molecule": "N#CCCN(CCC#N)C(=O)c1cccc(C(=O)N(CCC#N)CCC#N)c1",
    "Classification": 0
  },
  {
    "Molecule": "Cc1coc2c1C(OC(=O)C(C)C)C1(C)C(C)CCC(O)C1C2=O (stereo unspecified)",
    "Classification": 0
  },
  {
    "Molecule": "CC(C)(C)C1CCC2c3c([nH]c4ccccc34)C3C(=O)N(c4ccccc4[N+](=O)[O-])C(=O)C3C2C1 (stereo unspecified)",
    "Classification": 0
  },
  {
    "Molecule": "Cc1ccc(NC(=O)CCC(=O)C(C#N)c2ccccc2)cc1C (stereo unspecified)",
    "Classification": 0
  },
  {
    "Molecule": "O=S1(=O)OCCOS(=O)(=O)C1Br",
    "Classification": 0
  },
  {
    "Molecule": "OC1=CN=C(C2CC2)Oc2ccccc21",
    "Classification": 0
  },
  {
    "Molecule": "N#CC(c1ccccc1)N(CCc1ccccc1)C(=O)c1ccccc1 (stereo unspecified)",
    "Classification": 0
  }
]

---

Test system: UACC-62
Run description: NCI tumour cell line growth inhibition, 48 h
Calls of active or inactive are those of the source. Cut-off read from the data, not from the text of the source: active = GI50 up to about 1.1 µM and inactive = higher.
Entries annotated with measured GI50
Measured attribute: GI50

[
  {
    "Compound": "COC(=O)[C@]12CC=C3O[C@@H]4OC5(CCCCC5)O[C@@H]4[C@H]3C1C(=O)C=CC2=O (some centres undefined)",
    "Target": "UACC-62",
    "Reported value": "16 µM (inactive)"
  },
  {
    "Compound": "CCOc1cc(/C=N/c2ccc(Oc3ccc(Cl)cc3)c(Cl)c2)ccc1O",
    "Target": "UACC-62",
    "Reported value": "27.7 µM (inactive)"
  },
  {
    "Compound": "FC(F)(F)c1ccccc1N1CCN(c2nc(-c3cccs3)nc3ccc(Br)cc23)CC1",
    "Target": "UACC-62",
    "Reported value": "23 µM (inactive)"
  },
  {
    "Compound": "Nc1ncnn2c(C3OC(CO)C(O)C3O)ccc12 (centres undefined)",
    "Target": "UACC-62",
    "Reported value": "0.136 µM (active)"
  },
  {
    "Compound": "OC12c3ccccc3C1CCCCCCCCCC21OCCCO1 (centres undefined)",
    "Target": "UACC-62",
    "Reported value": "> 100 µM (inactive)"
  },
  {
    "Compound": "COC(=O)C1C2C=CC(C2)N1[C@@H](C)c1ccccc1 (some centres undefined)",
    "Target": "UACC-62",
    "Reported value": "> 100 µM (inactive)"
  },
  {
    "Compound": "COC(=O)C1(C(C)C)CCc2c(OC)ccc(OC)c2C1=O (centres undefined)",
    "Target": "UACC-62",
    "Reported value": "79.8 µM (inactive)"
  },
  {
    "Compound": "CC(=O)NC(=N/N=C1/C(=O)Nc2ccc(C)cc21)NC(C)=O",
    "Target": "UACC-62",
    "Reported value": "> 100 µM (inactive)"
  },
  {
    "Compound": "C=CCC1(Sc2ccccn2)Sc2ccc3ccccc3c2-c2c(ccc3ccccc23)S1",
    "Target": "UACC-62",
    "Reported value": "> 100 µM (inactive)"
  }
]
